target: T1, PSMA Fab (biotinylated (site not stated)); assay: phage ELISA, biotinylated anti-PSMA Fab on neutravidin plate, anti-M13 HRP detection
T1 construct: Biotinylated PSMA Fab captured on neutravidin coated plates in the phage ELISA; also called Anti-PSMA Fab; 006 PSMA Fab
Where no end group is shown, it is not given here.
measurement kind: Phage binding ELISA signal, Anti-PSMA Fab
Please reply with the value in numeric form only.

VYPLCKPSWMCSGL (cysteine pairing not given here; also: peptide displayed as fusion to phage pIII, Clonal phage of the peptide-180 optimisation library, tested as crude phage supernatant; not shown: bacteriophage pIII coat protein to which the peptide is fused for display) [Phage-2970] ... 2.26

Param item = LFKMCQPSWMCDGF (cysteine pairing not given here; also: peptide displayed as fusion to phage pIII, Clonal phage of the peptide-180 optimisation library, tested as crude phage supernatant; not shown: bacteriophage pIII coat protein to which the peptide is fused for display) [Phage-2965] ; retrieve measured Phage binding ELISA signal, Anti-PSMA Fab.
2.26
